ASSAY TARGET: KRAS(G12C) (Homo sapiens, UniProt P01116, G12C)
Sequence (P01116 1-188 isoform P01116-2 G12C): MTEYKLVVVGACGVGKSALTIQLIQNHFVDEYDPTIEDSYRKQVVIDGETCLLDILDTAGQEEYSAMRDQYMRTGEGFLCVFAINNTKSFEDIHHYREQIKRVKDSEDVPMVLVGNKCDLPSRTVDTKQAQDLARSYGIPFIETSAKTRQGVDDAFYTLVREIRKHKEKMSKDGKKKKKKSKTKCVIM
EXPERIMENTAL PROTOCOL: KRAS(G12C)/SOS1 homogeneous time-resolved fluorescence (HTRF) assay
CONDITIONS: absence of GTP, 4° C. for 3 hr, read-out: KRAS (G12C) binding
pIC50: −log10 of the molar value.
Property: pIC50; scope: individual compounds
MEASURED ENDPOINT: pIC50

STRUCTURE SMILES STRING	MEASURED ENDPOINT	ASSAY VALUE
C=CC(=O)N1CCN(c2nc(OC[C@@H]3C[C@H](N(C)CCC(=O)N4CCN(Cc5ccc(-n6c(C(=O)NCC(F)(F)F)nnc6-c6cc(C(C)C)c(O)cc6O)cc5)CC4)CN3C)nc3c2CCN(c2cccc4cccc(Cl)c24)C3)C[C@@H]1CC#N	pIC50	6.00 to 7.00
C=CC(=O)N1CCN(c2nc(OC[C@@H]3CC[C@H](C(=O)N4CCN(Cc5ccc(-n6c(O)nnc6-c6cc(C)c(O)cc6O)cc5)CC4)N3C)nc3c2CCN(c2cccc4cccc(Cl)c24)C3)C[C@@H]1CC#N	pIC50	> 7.00
C=C(F)C(=O)N1CCN(c2nc(OC[C@@H]3CC[C@H](CN4CCN(Cc5ccc(-n6c(C(=O)NCC)nnc6-c6cc(C(C)C)c(O)cc6O)cc5)CC4)N3C)nc3c2CCN(c2cccc4ccccc24)C3)C[C@@H]1CC#N	pIC50	6.00 to 7.00
C=CC(=O)N1CCN(c2nc(OC[C@@H]3C[C@H](N4CCN(C(=O)C5CCN(Cc6ccc(-n7c(O)nnc7-c7cc(C(C)C)c(O)cc7O)cc6)CC5)CC4)CN3C)nc3c2CCN(c2cccc4cccc(Cl)c24)C3)C[C@@H]1CC#N	pIC50	> 7.00
